experimental.system: Adenosine A2 receptor (UniProt P29275+P29274)
study.conditions: Canis lupus familiaris
Description: Molar potency ratio (MPR) against adenosine A2 receptor of canine coronary artery
# MPR per record follows
Answer with a number only.

OC[C@H]1O[C@@H](n2cnc3c(NCc4ccccc4)ncnc32)[C@H](O)[C@@H]1O [N6-BENZYLADENOSINE] : 0.52
Cc1cccc(Nc2ncnc3c2ncn3C2O[C@H](CO)[C@@H](O)[C@H]2O)c1C (some centres undefined) : 0.13
OC[C@H]1O[C@@H](n2cnc3c(Nc4ccccc4)ncnc32)[C@H](O)[C@@H]1O [N6-PHENYLADENOSINE] : 1.4

Now look at this one.
Enter measured MPR, system Adenosine A2 receptor (UniProt P29275+P29274), for the compound shown: OC[C@H]1O[C@@H](n2cnc3c(NC4CCCc5ccccc5C4)ncnc32)[C@H](O)[C@@H]1O (some centres undefined)
0.05

====

experimental.system: Adenosine A2 receptor (UniProt P29275+P29274)
study.conditions: Canis lupus familiaris
measurement.name: MPR
Answer with a number only.

// worked examples, MPR included
Cc1ccc(C)c(Nc2ncnc3c2ncn3C2O[C@H](CO)[C@@H](O)[C@H]2O)c1 (some centres undefined) : 0.22
COc1cc(OC)c(OC)cc1CCNc1ncnc2c1ncn2C1O[C@H](CO)[C@@H](O)[C@H]1O (some centres undefined) : 0.4
OC[C@H]1OC(n2cnc3c(NCc4cccs4)ncnc32)[C@H](O)[C@@H]1O (some centres undefined) : 0.23

Now look at this one.
Given OC[C@H]1O[C@@H](n2cnc3c(NCc4ccco4)ncnc32)[C@H](O)[C@@H]1O [KINETIN RIBOSIDE] , respond with its MPR.
0.06

====

# k' per record follows
assay.remarks: Index of hydrophobicity (k')
Type: ADME
Answer with a number only.

OC[C@H]1OC(n2cnc3c(Nc4ccccc4Cl)ncnc32)[C@H](O)[C@@H]1O (some centres undefined) : 2.36
Cc1ccc(Nc2ncnc3c2ncn3C2O[C@H](CO)[C@@H](O)[C@H]2O)cc1C (some centres undefined) : 5.98
Cc1cc(C)cc(Nc2ncnc3c2ncn3C2O[C@H](CO)[C@@H](O)[C@H]2O)c1 (some centres undefined) : 6.43

Given C[C@H](Cc1ccccc1)Nc1ncnc2c1ncn2[C@@H]1O[C@H](CO)[C@@H](O)[C@H]1O (stereo in doubt; 1) [(R)-PIA] , respond with its k'.
2.57

Given OC[C@H]1O[C@@H](n2cnc3c(NCc4ccco4)ncnc32)[C@H](O)[C@@H]1O [KINETIN RIBOSIDE] , respond with its k'.
0.85

Given Cc1cccc(Nc2ncnc3c2ncn3C2O[C@H](CO)[C@@H](O)[C@H]2O)c1 (some centres undefined) , respond with its k'.
3.28

Given Cc1ccccc1CCNc1ncnc2c1ncn2C1O[C@H](CO)[C@@H](O)[C@H]1O (some centres undefined) , respond with its k'.
4.52

Given OC[C@H]1OC(n2cnc3c(NCCc4ccc(O)cc4)ncnc32)[C@H](O)[C@@H]1O (some centres undefined) , respond with its k'.
0.43

Given COc1cc(Nc2ncnc3c2ncn3C2O[C@H](CO)[C@@H](O)[C@H]2O)cc(OC)c1OC (some centres undefined) , respond with its k'.
1.54

Given OC[C@H]1OC(n2cnc3c(Nc4cccc(Cl)c4)ncnc32)[C@H](O)[C@@H]1O (some centres undefined) , respond with its k'.
5.05

====

assay.remarks: Index of hydrophobicity (k')
Format: ADME
measurement.name: k'

// worked examples, k' included
COc1cc(CCCNc2ncnc3c2ncn3C2O[C@H](CO)[C@@H](O)[C@H]2O)cc(OC)c1OC (some centres not stated) : 2.05
CC(Nc1ncnc2c1ncn2C1O[C@H](CO)[C@@H](O)[C@H]1O)c1ccccc1 (stereo in doubt; 38a) : 1.64
Cc1cccc(Nc2ncnc3c2ncn3C2O[C@H](CO)[C@@H](O)[C@H]2O)c1C (some centres not stated) : 2.58

Given Cc1cccc(C)c1Nc1ncnc2c1ncn2C1O[C@H](CO)[C@@H](O)[C@H]1O (some centres not stated) , respond with its k'.
1.52

Given OC[C@H]1O[C@@H](n2cnc3c(NCCCc4ccccc4)ncnc32)[C@H](O)[C@@H]1O , respond with its k'.
2.75

Given CC(CCc1ccccc1)Nc1ncnc2c1ncn2C1O[C@H](CO)[C@@H](O)[C@H]1O (some centres not stated) , respond with its k'.
6.11

Given OC[C@H]1O[C@@H](n2cnc3c(NCc4cccc5ccccc45)ncnc32)[C@H](O)[C@@H]1O , respond with its k'.
6.27

Given OC[C@H]1OC(n2cnc3c(NCc4ccncc4)ncnc32)[C@H](O)[C@@H]1O (some centres not stated) , respond with its k'.
0.21

Given COc1cccc(CNc2ncnc3c2ncn3C2O[C@H](CO)[C@@H](O)[C@H]2O)c1 (some centres not stated) , respond with its k'.
1.54

Given OC[C@H]1OC(n2cnc3c(NCCc4ccc(F)cc4)ncnc32)[C@H](O)[C@@H]1O (some centres not stated) , respond with its k'.
2.39

Given Cc1cccc(CNc2ncnc3c2ncn3[C@@H]2O[C@H](CO)[C@@H](O)[C@H]2O)c1 , respond with its k'.
2.92

Given OC[C@H]1OC(n2cnc3c(NCCc4ccc(Cl)cc4)ncnc32)[C@H](O)[C@@H]1O (some centres not stated) , respond with its k'.
4.07

Given COc1ccc(CCNc2ncnc3c2ncn3C2O[C@H](CO)[C@@H](O)[C@H]2O)cc1 (some centres not stated) , respond with its k'.
1.93
